This collection of values is drawn from patent US6380202B1.

Test system: Botrytis cinerea
Format: cell-based
APPLIED_CONDITIONS: […]; V8 nutrient solution; 6-12 days incubation, 18-25° C.; visual inspection
REPORTED_ENDPOINT: MIC (Minimum Inhibitory Concentration) BOTRCI (mg/mL)

[[record]]
compound = "FCC1CCN(c2c(-c3c(F)cccc3Cl)c(Cl)nc3ncnn23)CC1"
unit_text = "mg/mL"
val = 3.13

[[record]]
compound = "Fc1cccc(Cl)c1-c1c(Cl)nc2ncnn2c1N1CCCC(F)C1 (centres unmarked)"
unit_text = "mg/mL"
val = 12.5

[[record]]
compound = "Fc1cc(F)c(-c2c(Cl)nc3ncnn3c2N2CCC(F)CC2)c(F)c1"
unit_text = "mg/mL"
val = 3.13

[[record]]
compound = "Fc1c(F)c(F)c(-c2c(Cl)nc3ncnn3c2N2CCCC(F)C2)c(F)c1F (centres unmarked)"
unit_text = "mg/mL"
val = 12.5

[[record]]
compound = "Fc1cccc(Cl)c1-c1c(Cl)nc2ncnn2c1N1CCC(F)(F)CC1"
unit_text = "mg/mL"
val = 50


====

Test system: Leptosphaeria nodorum
MEASUREMENT_DESCRIPTION: Greenhouse test, Wheat Septoria nodorum (WSN)
APPLIED_CONDITIONS: Foliar application, 25 ppm, 2 day residual (inoculation 2 days after application)
Listed here are molecules together with their documented Disease control (% efficacy) WSN 2 da R.
REPORTED_ENDPOINT: Disease control (% efficacy) WSN 2 da R (%)

[[record]]
molecule = "FCC1CCN(c2c(-c3c(F)cc(F)cc3F)c(Cl)nc3ncnn23)CC1 [Example 6]"
test_target = "Leptosphaeria nodorum"
reported_endpoint = "Disease control (% efficacy) WSN 2 da R"
unit_text = "%"
val = 63

[[record]]
molecule = "FCC1CCN(c2c(-c3c(F)cccc3Cl)c(Cl)nc3ncnn23)CC1 [Example 2]"
test_target = "Leptosphaeria nodorum"
reported_endpoint = "Disease control (% efficacy) WSN 2 da R"
unit_text = "%"
val = 17

[[record]]
molecule = "Fc1cc(F)c(-c2c(Cl)nc3ncnn3c2N2CCC(F)CC2)c(F)c1 [Example 1]"
test_target = "Leptosphaeria nodorum"
reported_endpoint = "Disease control (% efficacy) WSN 2 da R"
unit_text = "%"
val = 54

[[record]]
molecule = "Fc1cccc(Cl)c1-c1c(Cl)nc2ncnn2c1N1CCCC(F)C1 (stereo not drawn) [Example 3]"
test_target = "Leptosphaeria nodorum"
reported_endpoint = "Disease control (% efficacy) WSN 2 da R"
unit_text = "%"
val = 0

[[record]]
molecule = "Fc1c(F)c(F)c(-c2c(Cl)nc3ncnn3c2N2CCCC(F)C2)c(F)c1F (stereo not drawn) [Example 4]"
test_target = "Leptosphaeria nodorum"
reported_endpoint = "Disease control (% efficacy) WSN 2 da R"
unit_text = "%"
val = 0

[[record]]
molecule = "Fc1cccc(Cl)c1-c1c(Cl)nc2ncnn2c1N1CCC(F)(F)CC1 [Example 5]"
test_target = "Leptosphaeria nodorum"
reported_endpoint = "Disease control (% efficacy) WSN 2 da R"
unit_text = "%"
val = 36

